All figures here come from ChEMBL document CHEMBL5058577.

System: HEK-293T
protocol: Multiplex assay against HEK293T
Format: toxicity, cell-based
measurement_setup: human, 12 h, 1 µM, compound concentration 1 uM, replicate 1

# compound, target_system, Total Cell Count
rows = [
    ("Cc1nn(C)c2nc(NNC(=O)Nc3cc(Cl)nc(Cl)c3)cc(C(C)C)c12", "HEK-293T", 467),
    ("COc1ccc2c(c1OCc1ccccc1)C[C@@H](C(=O)O)N(C(=O)C(c1ccccc1)c1ccccc1)C2 [OLODANRIGAN]", "HEK-293T", 419),
    ("COc1cc2nc(N3CCN(C(=O)COc4c(OC)cccc4C(C)C)CC3)nc(N)c2cc1OC.Cl.Cl", "HEK-293T", 402),
    ("O=C(NCCNCC(O)COc1ccc(O)cc1)N1CCOCC1.O=C(NCCNCC(O)COc1ccc(O)cc1)N1CCOCC1.O=C(O)/C=C/C(=O)O (stereo not drawn) [XAMOTEROL FUMARATE]", "HEK-293T", 339),
    ("CCn1c(-c2nc3cc(C(=O)N4CCCC(N)C4)ccc3n2C)cc2ccccc21.Cl (stereo not drawn)", "HEK-293T", 351),
    ("O=c1ccc2ccc(OCCCCN3CCN(c4cccc5sccc45)CC3)cc2[nH]1 [BREXPIPRAZOLE]", "HEK-293T", 392),
    ("Nc1nc(-c2ccco2)c2cnn(Cc3ccccc3F)c2n1", "HEK-293T", 300),
    ("Nc1nc(CC(=O)Nc2ccc(CCNC[C@H](O)c3ccccc3)cc2)cs1 [MIRABEGRON]", "HEK-293T", 455),
    ("COc1c(Nc2ccc(S(C)(=O)=O)nc2C)ncnc1OC1CCN(C(=O)OC(C)C)CC1 [ADP-597]", "HEK-293T", 430),
    ("COc1cc(C(=O)N2CC[C@@H](O)[C@@H](N)C2)cc2nc(-c3cc4ccccc4n3CC3CC3)n(C)c12.Cl", "HEK-293T", 398),
    ("OCCCNc1cc(-c2ccnc(Nc3cccc(Cl)c3)n2)ccn1", "HEK-293T", 204),
    ("Cl.Cl.OCCOCCN1CCN(C(c2ccccc2)c2ccc(Cl)cc2)CC1 (stereo not drawn) [HYDROXYZINE HYDROCHLORIDE]", "HEK-293T", 394),
    ("CN1CCC(C(=O)c2cccc(NC(=O)c3c(F)cc(F)cc3F)n2)CC1", "HEK-293T", 396),
    ("O=C(O)CCC/C=C\\CC1C(O)CC(O)C1/C=C/C(O)COc1cccc(Cl)c1 (stereo not drawn) [CLOPROSTENOL]", "HEK-293T", 458),
    ("CC(C)(C)c1ccc(CSc2cnn(C(C)(C)C)c(=O)c2Cl)cc1 [PYRIDABEN]", "HEK-293T", 299),
    ("Cc1c(Cc2ccc3ccccc3n2)c2cc(F)ccc2n1CC(=O)O [TIMAPIPRANT]", "HEK-293T", 394),
    ("O=c1nc2[nH]c3ccccc3nc-2c(=O)[nH]1 [ALLOXAZINE]", "HEK-293T", 377),
    ("Cc1cc(=O)n(C)c2cc(N3C(=O)CC[C@H](NS(=O)(=O)CC(C)C)[C@H]3c3ccc(Cl)cc3)ccc12", "HEK-293T", 454),
    ("Cc1cc(-c2ccc3c(c2)CC[C@H]3N2CC3(CCN(C(=O)Cc4cn5cc(C)sc5n4)CC3)C2)ncn1 [PF-5190457]", "HEK-293T", 418),
    ("COCCn1c(C)c(C)s/c1=N\\C(=O)C1C(C)(C)C1(C)C", "HEK-293T", 335),
    ("CCCCC[C@H](O)/C=C/[C@H]1[C@H](O)CC(=O)[C@@H]1CCCCCCC(=O)O [ALPROSTADIL]", "HEK-293T", 471),
    ("Cc1cc(NC(=O)NCCN2CCC(O)(Cc3ccccc3)CC2)c2ccccc2n1 [PALOSURAN]", "HEK-293T", 373),
    ("Cc1ccc(OCC(O)C(C)NC(C)C)c2c1CCC2.Cl (stereo not drawn)", "HEK-293T", 409),
]
